System: L929
Assay: Inhibitory activity against L929 cells
Assay type: functional, cell-based
Conditions: Mus musculus
Observable: pIC50
Units for pIC50: none; it is -log10 of a concentration expressed in mol/L.

If you can, please state the reported pIC50 value of Nc1cc(OCCOCP(=O)(O)O)nc(N)n1 . 4.60

----------
System: CCRF-CEM
Test: Inhibition of Human immunodeficiency virus (HIV)-2 ROD strain induced cytopathicity in CEM cell line
Format: functional, cell-based
Observable: EC50

# count of solved cases: 3
{"Sample smiles": "CN(C)c1cc(OCCOCP(=O)(O)O)nc(N)n1", "System": "CCRF-CEM", "EC50": "> 100 µg/mL"}
{"Sample smiles": "Cc1cc(=O)n(CCOCP(=O)(O)O)c(N)n1", "System": "CCRF-CEM", "EC50": "> 100 µg/mL"}
{"Sample smiles": "CN(C)c1cc(=O)n(CCOCP(=O)(O)O)c(N)n1", "System": "CCRF-CEM", "EC50": "> 100 µg/mL"}

Fill in: EC50 of CC(C)OP(=O)(COCCOc1cc(N)ncn1)OC(C)C is ___ > 20 µg/mL

Fill in: EC50 of Nc1cc(=O)n(CCOCP(=O)(O)O)c(N)n1 is ___ 25 µg/mL

What does the data say about its EC50? Entry: Nc1cc(O)nc(SCCOCP(=O)(O)O)n1 > 100 µg/mL

Consider the molecule shown here: CC(C)OP(=O)(COCCSc1cc(N)nc(N)n1)OC(C)C What is its recorded EC50? 52 µg/mL

What measured EC50 goes with Nc1cc(SCCOCP(=O)(O)O)nc(N)n1 ? 3 µg/mL

----------
System: L929
Experiment: In vitro cytotoxicity against murine L929 cells
Type: functional, Mus musculus
Set-up: concentration or dose not given beside the values
Observable: Control (%)
Enter your answer as a number in %; do not include the unit.

{"Sample smiles": "CN(C)c1cc(OCCOCP(=O)(O)O)nc(N)n1", "Quantitative result": 104}
{"Sample smiles": "Cc1cc(OCCOCP(=O)(O)O)nc(N)n1", "Quantitative result": 85}
{"Sample smiles": "Nc1cc(SCCOCP(=O)(O)O)nc(N)n1", "Quantitative result": 88}

Requested read-out: Control. Entry: Nc1cc(OCCOCP(=O)(O)O)nc(N)n1 61

----------
Test system: Moloney murine sarcoma virus
Assay: Inhibition of moloney sarcoma virus (MSV) induced cytopathicity in C3H/3T3 embryo fibroblast cells
Assay type: functional, organism-based
Observable: EC50 (µg/mL)
Enter your answer as a number in µg/mL; do not include the unit.

{"Sample smiles": "Nc1cc(SCCOCP(=O)(O)O)nc(N)n1", "Unit abbrev": "µg/mL", "EC50": 1.7}
{"Sample smiles": "Nc1nc(OCCOCP(=O)(O)O)cc(OCCOCP(=O)(O)O)n1", "Unit abbrev": "µg/mL", "EC50": 43}
{"Sample smiles": "CN(C)c1cc(=O)n(CCOCP(=O)(O)O)c(N)n1", "Unit abbrev": "µg/mL", "EC50": 105}

What value of EC50 has been recorded for this entry: Nc1cc(=O)n(CCOCP(=O)(O)O)c(N)n1 2.92

Would you mind telling me what EC50 value was observed for Nc1cc(OCCOCP(=O)(O)O)ncn1 ? 13

Name the recorded EC50 for Nc1ncnc2c1ncn2CCOCP(=O)(O)O . 0.25

Quick one: EC50 of CN(C)c1cc(O)nc(N)n1 ? 132

Query: EC50; subject: Cc1cc(=O)n(CCOCP(=O)(O)O)c(N)n1 122

----------
System: HeLa
Assay: In vitro cytotoxicity against human cervix carcinoma HeLa S3 cells
Type: functional
Set-up: concentration or dose not given beside the values
Some compounds, each annotated with its measured Control.
Include the unit after the number when you answer.

Take a look at these entries with their results.
{"Sample smiles": "CN(C)c1cc(OCCOCP(=O)(O)O)nc(N)n1", "System": "HeLa", "Control": "89%"}
{"Sample smiles": "Cc1cc(OCCOCP(=O)(O)O)nc(N)n1", "System": "HeLa", "Control": "87%"}
{"Sample smiles": "Nc1nc(OCCOCP(=O)(O)O)cc(OCCOCP(=O)(O)O)n1", "System": "HeLa", "Control": "72%"}
{"Sample smiles": "Nc1cc(=O)n(CCOCP(=O)(O)O)c(N)n1", "System": "HeLa", "Control": "93%"}
{"Sample smiles": "Nc1cc(=O)n(CCOCP(=O)(O)O)cn1", "System": "HeLa", "Control": "94%"}
{"Sample smiles": "Nc1cc(SCCOCP(=O)(O)O)nc(N)n1", "System": "HeLa", "Control": "98%"}

Let's switch to this compound now.
// lookup Control for CN(C)c1cc(=O)n(CCOCP(=O)(O)O)c(N)n1 92%

----------
Test system: L929
Assay: In vitro cytotoxicity against murine L929 cells
Format: functional, Mus musculus
Design: concentration or dose not given beside the values
Control strictly under 90% means criterion met; at 90% or over means criterion not met.

Reference set (4 entries):
{"Sample smiles": "Cc1cc(=O)n(CCOCP(=O)(O)O)c(N)n1", "Label": "criterion met"}
{"Sample smiles": "Nc1cc(=O)n(CCOCP(=O)(O)O)c(N)n1", "Label": "criterion not met"}
{"Sample smiles": "Nc1nc(OCCOCP(=O)(O)O)cc(OCCOCP(=O)(O)O)n1", "Label": "criterion met"}
{"Sample smiles": "Nc1cc(OCCOCP(=O)(O)O)ncn1", "Label": "criterion met"}

Query compound follows.
hey, is Control for CN(C)c1cc(=O)n(CCOCP(=O)(O)O)c(N)n1 lower than 90% or not? criterion not met

----------
Test system: Moloney murine sarcoma virus
Assay: Inhibition of moloney sarcoma virus (MSV) induced cytopathicity in C3H/3T3 embryo fibroblast cells
Format: functional, organism-based
Listed here are molecules together with their documented log10 EC50.
Each number you see is log10 of EC50, and the unit inside the log is µg/mL.

Request: log10 EC50, test system Moloney murine sarcoma virus, entry CN(C)c1cc(OCCOCP(=O)(O)O)nc(N)n1 2.12

Report log10 EC50 for Nc1nc(OCCOCP(=O)(O)O)cc(=O)n1CCOCP(=O)(O)O tested on Moloney murine sarcoma virus. 2.03

So what log10 EC50 did Nc1cc(O)nc(SCCOCP(=O)(O)O)n1 get with Moloney murine sarcoma virus? 1.86

Record lookup: for Moloney murine sarcoma virus, what log10 EC50 belongs to Nc1cc(OCCOCP(=O)(O)O)nc(N)n1 ? -1.40

So what log10 EC50 did Cc1cc(OCCOCP(=O)(O)O)nc(N)n1 get with Moloney murine sarcoma virus? 1.95

Recorded log10 EC50 for Nc1nc(O)cc(NC2CC2)n1 with Moloney murine sarcoma virus, please? 2.12

Please state recorded log10 EC50 (tested on Moloney murine sarcoma virus) of Nc1cc(=O)n(CCOCP(=O)(O)O)cn1 2.14
